Tested on: MOLT-4 leukemia
test: NCI-60 one-dose screen, 48 h
measurement-context: 10 µM unless noted
Compounds without any hit were thinned out: in the full panel of roughly 83,000, 20% have a hit. Calls of active or inactive are those of the source. How the source made its calls: active means growth percent below 10; inactive means the rest.
Permitted responses: active, inactive

query: Assay result, entry CCOC(=O)C(=O)C(C(=O)OCC)c1ccccc1 (configuration not stated) — outcome?
result: inactive

query: Assay result, entry CCOC(=O)c1ccc(NC(=O)c2nc(-c3cc(OC)c(OC)c(OC)c3)n(-c3ccc(Cl)cc3)n2)cc1 — outcome?
result: inactive

query: Assay result, entry COC12C=C/C(=C(/C(=O)OCc3ccncn3)C(=O)CCCCCCCCC3(OC)C=C/C(=C(/C(=O)OCc4ccncn4)C(=O)CCCCCCCC1)O3)O2 — outcome?
result: active

query: Assay result, entry C#Cc1c2c(c(OC)c3c1OCO3)[C@H]([C@H]1OC(=O)c3c1ccc(OC)c3OC)N(C)CC2 — outcome?
result: inactive

query: Assay result, entry O=[N+]([O-])c1ccc(O)cc1Br — outcome?
result: inactive

query: Assay result, entry Cc1ccc(C2=Nc3c(N)ncnc3NC(c3cccc(Nc4ccnc5cc(C(F)(F)F)ccc45)c3)C2)cc1 (configuration not stated) — outcome?
result: active

query: Assay result, entry CC1(C)COB(OCC(C)(C)COB2OCC(C)(C)CO2)OC1 — outcome?
result: inactive

query: Assay result, entry O=S(=O)(NCCCNc1nccc(-c2c(-c3ccc(F)c(O)c3)nc3sccn23)n1)c1ccccc1 — outcome?
result: inactive

query: Assay result, entry O=C(O)CCCN1C(=O)/C(=C/c2cn(-c3ccccc3)nc2-c2ccc([N+](=O)[O-])cc2)SC1=S — outcome?
result: inactive

query: Assay result, entry CCCCn1c(=O)[nH]c(N)c([C@@H]2c3c([nH]c(=O)n(CCCC)c3=O)Oc3ccc4ccccc4c32)c1=O — outcome?
result: active

Continuing:
query: Assay result, entry CCn1cc(C(=O)NNC(=S)Nc2ccc(C)cc2)c(=O)c2ccc(C)nc21 — outcome?
result: inactive

query: Assay result, entry C#COc1cccc(Nc2c(C#N)cnc3ncc(NC(=O)CCl)cc23)c1 — outcome?
result: active

query: Assay result, entry CC(C)(C)[Si](C)(C)OC1[C@@H](CNC(=O)NC(=O)NC(N)=O)O[C@@H](n2cnc3c(NC(=O)Nc4ccccc4)ncnc32)[C@H]1O[Si](C)(C)C(C)(C)C (some centres not stated) — outcome?
result: inactive

query: Assay result, entry C1CCC([PH+](C2CCCCC2)C2CCCCC2[PH+](C2CCCCC2)C2CCCCC2)CC1.[Au].[CH-]1CCCCC1C1CCCC[N-]1 (configuration not stated) — outcome?
result: active

query: Assay result, entry COc1cc2cc(NCc3cccc(Cl)c3)nc(C)c2cc1OC — outcome?
result: inactive

====

System: NCI-H322M lung
test: NCI-60 one-dose screen, 48 h (100 = growth as untreated, 0 = no growth, -100 = all killed)
measurement-context: 10 µM unless noted
About 83,000 compounds went through this panel and 20% of them were active in at least one assay; those are over-represented in the sample as a whole.
assay-metric: growth (%)
Numbers only, in %.

query: Dear colleague, please send me the reported growth for COC1=CC(c2ccc[nH]2)=N/C1=C\c1[nH]c(C)c(CC(=O)OCc2ccccc2)c1CCC(=O)OCc1ccccc1 when you can.
result: 34.7

query: Dear colleague, please send me the reported growth for Fc1cccc(Oc2ccc(Nc3ncnc4ccc(OCCCN5CCOCC5)cc34)cc2Cl)c1 when you can.
result: 37.7

Look at each molecule and report its growth.
1. O=C1/C=C/[C@@H](O)[C@@H]2C[C@@H](O)C[C@H]2/C=C/CCC[C@H](CCc2ccccc2)O1
2. O=C1/C(=C/c2cccc(F)c2)CN(C(=O)C(Cl)Cl)C/C1=C\c1cccc(F)c1

result:
[35.9, -44.1]

====

Tested on: NCI-H522 lung
test: NCI-60 one-dose screen, 48 h
measurement-context: 10 µM unless noted
This is part of a sample that, as a whole, favours compounds with a hit. Of some 83,000 tested, about 20% had one in any assay. Calls of active or inactive are those of the source. The calls were made as follows: active = growth percent below 10; inactive = the rest.
Permitted responses: active, inactive

query: Assay result, entry CC1CCN(CCOc2ccc(CNc3ccc4nc(CCC5CCCCC5)[nH]c4c3)cc2)CC1 — outcome?
result: inactive

Continuing:
query: Assay result, entry Nc1c(C(=O)Nc2ccncc2)sc2nc3c(cc12)C(O)CCC3 (stereo not given) — outcome?
result: inactive

query: Assay result, entry CC(C)COc1nc2c(c(=O)n(C)c(=O)n2C)n1C — outcome?
result: inactive

====

Tested on: NCI-H460 lung
test: NCI-60 one-dose screen, 48 h (100 = growth as untreated, 0 = no growth, -100 = all killed)
measurement-context: 10 µM unless noted
About 83,000 compounds went through this panel and 20% of them were active in at least one assay; those are over-represented in the sample as a whole.
# class 1 = growth below 90% (exclusive); class 0 = growth at/above 90%

Use the examples below as a reference point.
query: Could you please tell me whether growth recorded for O=C(c1nn(-c2ccccc2)c2c1CC(NCc1ccc(F)cc1)CC2)N1CCCCC1 (stereo not given) is less than 90%?
result: class 0

query: Could you please tell me whether growth recorded for COCCn1cc(-c2nc(-c3cc4cccnc4[nH]3)cs2)c2cc(OC)ccc21 is less than 90%?
result: class 1

query: Could you please tell me whether growth recorded for C=CCc1c(O)c(C(=O)/C=C/c2ccccc2)c(OC)c2ccoc12 is less than 90%?
result: class 1

Continuing:
query: Could you please tell me whether growth recorded for Nc1c(C(=O)Nc2ccccc2F)sc2nc3c(cc12)CCCC3 is less than 90%?
result: class 1

query: Could you please tell me whether growth recorded for N#CC1=C(c2ccccc2)Nc2c(c(-c3ccc(Cl)cc3)nn2-c2ccccc2)C12C(=O)Nc1ccc(Cl)cc12 (stereo not given) is less than 90%?
result: class 1

query: Could you please tell me whether growth recorded for COc1ccc(C2=C(Br)C(=O)c3nc(C)ccc3C2=O)cc1 is less than 90%?
result: class 0

query: Could you please tell me whether growth recorded for c1ccc(-c2oc(-c3ccccc3)c(CN3CCCCC3)c2CN2CCCCC2)cc1 is less than 90%?
result: class 1

====

Test system: SN12C renal
test: NCI-60 one-dose screen, 48 h
measurement-context: 10 µM unless noted
About 83,000 compounds went through this panel and 20% of them were active in at least one assay; those are over-represented in the sample as a whole. Calls of active or inactive are those of the source. Rule for the calls: active = growth percent below 10; inactive = the rest.
Permitted responses: yes for active, no for inactive

Use the examples below as a reference point.
query: Assay result, entry COc1ccc(-c2cc(-c3cccnc3)nc3sc4c(=O)[nH]c(-c5ccc(Cl)cc5)nc4c23)cc1OC — outcome?
result: no

query: Assay result, entry Cc1c(-c2ccc(O)cc2)n(Cc2ccc(OCCN3CCCCCC3)cc2)c2ccc(O)cc12 — outcome?
result: no

query: Assay result, entry N#Cc1ccc(O)c(C2=NCC(c3ccccc3)O2)c1 (stereo unspecified) — outcome?
result: no

query: Assay result, entry C/C(=N\O)c1ccc(Cl)cc1 — outcome?
result: no

Continuing:
query: Assay result, entry CNc1nnc2n(-c3ccccc3)c(=O)c3cnn(-c4ccccc4)c3n12 — outcome?
result: no

query: Assay result, entry c1ccc(Cn2cc3c(c2)-c2oncc2CC3)cc1 — outcome?
result: no

query: Assay result, entry COc1cc(-c2nccc3[nH]c(-c4ccc5cc[nH]c5c4)nc23)cc(OC)c1OC — outcome?
result: no

====

I'd be grateful if you could share measured growth for these entries.
Tested on: OVCAR-5 ovarian
test: NCI-60 one-dose screen, 48 h (100 = growth as untreated, 0 = no growth, -100 = all killed)
measurement-context: 10 µM unless noted
Compounds without any hit were thinned out: in the full panel of roughly 83,000, 20% have a hit.
Give bare numbers, in %.

Example molecules with recorded growth:
query: Dear colleague, please send me the reported growth for NS(=O)(=O)c1ccccc1NC(=O)Nc1nc2ccccc2s1 when you can.
result: 101

query: Dear colleague, please send me the reported growth for CC(C)c1ccc(C(=O)Nc2nc3ccc(O)c(CN(C)C)c3s2)cc1 when you can.
result: 70.1

Look at each molecule and report its growth.
1. COc1ccccc1N1CCCCC1
2. COc1ccc(NC(=O)c2sc3nc(C)c(C(=O)/C=C/c4ccccc4)cc3c2N)cc1
3. N#C/C(=C\c1c(-c2ccccc2)[nH]c2ccccc12)C(N)=O
4. COCCNC(=O)Nc1ccc2nc(-c3cccs3)c(-c3cccs3)nc2c1

result:
1. 86.2
2. 63.5
3. 107
4. 87.9

Look at each molecule and report its growth.
1. O=C(CN1C(=O)NC2NC(=O)NC21)N/N=C/c1ccccc1[N+](=O)[O-] (stereo not given)
2. O=C1C(Cl)=C(NCCCCCCNC2=C(Cl)C(=O)c3ccccc3C2=O)C(=O)c2ccccc21
3. N=C(N)c1ccc(-c2ccc(-c3ccc(Cl)c(Cl)c3)s2)nc1
4. Cc1[nH]c(C(=O)Nc2ccc(C(=O)N3CCN(c4cc5c(cc4F)c(=O)c(C(=O)O)cn5C4CC4)CC3)cc2OC(C)C)c(Cl)c1Cl

result:
1: 108; 2: 110; 3: 20.1; 4: 95.1
